Molecular target: T1, wild-type human PTH/PTHrP receptor (hP1R-WT) (human, UniProt Q03431 27-593)
T1 sequence (looked up): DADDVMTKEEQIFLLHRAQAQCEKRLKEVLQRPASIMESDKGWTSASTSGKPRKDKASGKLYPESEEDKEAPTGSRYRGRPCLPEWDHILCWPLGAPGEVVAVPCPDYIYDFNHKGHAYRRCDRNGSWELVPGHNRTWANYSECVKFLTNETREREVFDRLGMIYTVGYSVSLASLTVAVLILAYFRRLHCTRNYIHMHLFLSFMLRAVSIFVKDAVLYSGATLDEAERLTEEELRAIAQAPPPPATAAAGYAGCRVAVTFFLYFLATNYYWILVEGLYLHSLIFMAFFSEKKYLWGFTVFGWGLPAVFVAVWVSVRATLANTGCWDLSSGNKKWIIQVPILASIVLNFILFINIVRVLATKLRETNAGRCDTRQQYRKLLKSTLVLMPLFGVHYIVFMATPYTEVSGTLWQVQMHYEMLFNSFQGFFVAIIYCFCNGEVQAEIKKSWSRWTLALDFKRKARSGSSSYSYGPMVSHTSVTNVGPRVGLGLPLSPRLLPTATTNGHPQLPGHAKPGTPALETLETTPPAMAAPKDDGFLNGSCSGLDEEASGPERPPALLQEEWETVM
Test: cell-based or functional assay
Square brackets hold non-standard residues; d marks the D form. Ends that are not written are not given here. hArg = N=C(N)NCCCC[C@H](N)C(=O)O; Aib = CC(C)(N)C(=O)O
Recorded Metric: cAMP EMax(obs.) (pmole/well)
Dear colleague, please return just the value in pmole/well, with no unit written.

[[record]]
binder = "AVAEIQ[Aib]MHQ[hArg]AKW-NH2 (N-terminus assumed; SMILES CC[C@H](C)[C@H](NC(=O)[C@H](CCC(=O)O)NC(=O)[C@H](C)NC(=O)[C@@H](NC(=O)[C@H](C)N)C(C)C)C(=O)N[C@@H](CCC(N)=O)C(=O)NC(C)(C)C(=O)N[C@@H](CCSC)C(=O)N[C@@H](Cc1c[nH]cn1)C(=O)N[C@@H](CCC(N)=O)C(=O)N[C@@H](CCCCNC(=N)N)C(=O)N[C@@H](C)C(=O)N[C@@H](CCCCN)C(=O)N[C@@H](Cc1c[nH]c2ccccc12)C(N)=O, Aib scan of [M]PTH(1-14); also called 628 Aib-7) [[Aib^7,M]PTH(1-14)]"
assay_value = 275


cAMP EMax(obs.) measured on AVAEIQLM[Aib]Q[hArg]AKW-NH2 (N-terminus assumed; SMILES CC[C@H](C)[C@H](NC(=O)[C@H](CCC(=O)O)NC(=O)[C@H](C)NC(=O)[C@@H](NC(=O)[C@H](C)N)C(C)C)C(=O)N[C@@H](CCC(N)=O)C(=O)N[C@@H](CC(C)C)C(=O)N[C@@H](CCSC)C(=O)NC(C)(C)C(=O)N[C@@H](CCC(N)=O)C(=O)N[C@@H](CCCCNC(=N)N)C(=O)N[C@@H](C)C(=O)N[C@@H](CCCCN)C(=O)N[C@@H](Cc1c[nH]c2ccccc12)C(N)=O, Aib scan of [M]PTH(1-14); also called 630 Aib-9) [[Aib^9,M]PTH(1-14)] = 51
